Reported Na values are given for each entry in this list.
- Organism: Rattus norvegicus
- ASSAY NOTES: Open TG-GATES - Regimen: Single
- Type: toxicity, organism-based, Sprague-Dawley
- Parameters: regimen Single, gender Male, age 6 weeks
- TEST CONTEXT: in vivo, po, 100 mg/kg, 6 h, tissue Plasma, route gavage, dose level Low
Please reply with the bare figure in meq/L and do not write the unit itself.

// worked examples, Na included
CCOC(=O)CCC(=O)O[C@H]1[C@H](O[C@@H]2[C@@H](C)[C@H](O[C@H]3C[C@@](C)(OC)[C@@H](O)[C@H](C)O3)[C@@H](C)C(=O)O[C@H](CC)[C@@](C)(O)[C@H](O)[C@@H](C)C(=O)[C@H](C)C[C@@]2(C)O)O[C@H](C)C[C@@H]1N(C)C [ERYTHROMYCIN ETHYLSUCCINATE] : 138
COC1=CC(=O)C[C@@H](C)[C@]12Oc1c(Cl)c(OC)cc(OC)c1C2=O [GRISEOFULVIN] : 141
NC(N)=Nc1nc(CSCCC(N)=NS(N)(=O)=O)cs1 [FAMOTIDINE] : 140.4

Q: Which Na is reported for this molecule? COc1ccc2[nH]c([S+]([O-])Cc3ncc(C)c(OC)c3C)nc2c1 (centres undefined) [OMEPRAZOLE]
Result: 141

----------
- Organism: Rattus norvegicus
- ASSAY NOTES: Open TG-GATES - Regimen: Single
- Assay type: toxicity, organism-based, Sprague-Dawley
- Design: regimen Single, gender Male, age 6 weeks
- TEST CONTEXT: in vivo, po, 0 mg/kg, 24 h, tissue Plasma, route gavage, dose level Control
Below, each entry is listed with its recorded CRE.

Reference set, count: 5
C[C@@H]1C[C@H]2[C@@H]3CCC4=CC(=O)C=C[C@]4(C)[C@@]3(F)[C@@H](O)C[C@]2(C)[C@@]1(O)C(=O)CO : 0.4 mg/dL
COC1=CC(=O)C[C@@H](C)[C@]12Oc1c(Cl)c(OC)cc(OC)c1C2=O : 0.4 mg/dL
CN1C(=O)CN=C(c2ccccc2)c2cc(Cl)ccc21 : 0.5 mg/dL
CCOC(=O)CCC(=O)O[C@H]1[C@H](O[C@@H]2[C@@H](C)[C@H](O[C@H]3C[C@@](C)(OC)[C@@H](O)[C@H](C)O3)[C@@H](C)C(=O)O[C@H](CC)[C@@](C)(O)[C@H](O)[C@@H](C)C(=O)[C@H](C)C[C@@]2(C)O)O[C@H](C)C[C@@H]1N(C)C [ERYTHROMYCIN ETHYLSUCCINATE] : 0.1 mg/dL
COc1ccc2[nH]c([S+]([O-])Cc3ncc(C)c(OC)c3C)nc2c1 (configuration not stated) : 0.4 mg/dL

Q: Which CRE reading was recorded for the compound CCCNC(=O)NS(=O)(=O)c1ccc(Cl)cc1 [CHLORPROPAMIDE] ?
Result: 0.2 mg/dL

Q: Repeat for the following compound: `CN(C)CCCN1c2ccccc2CCc2ccccc21`
Result: 0.2 mg/dL

----------
DBIL overview
- Species: Rattus norvegicus
- ASSAY NOTES: Open TG-GATES - Regimen: Daily Repeat
- Format: toxicity, organism-based, Sprague-Dawley
- Set-up: regimen Daily Repeat, gender Male, age 6 weeks
- TEST CONTEXT: in vivo, po, 0 mg/kg, […], tissue Plasma, route gavage, dose level Control, time 28 day
Kindly provide the numeric value in mg/dL only, without the unit symbol.

Some entries whose results are on file:
CCOC(=O)CCC(=O)O[C@H]1[C@H](O[C@@H]2[C@@H](C)[C@H](O[C@H]3C[C@@](C)(OC)[C@@H](O)[C@H](C)O3)[C@@H](C)C(=O)O[C@H](CC)[C@@](C)(O)[C@H](O)[C@@H](C)C(=O)[C@H](C)C[C@@]2(C)O)O[C@H](C)C[C@@H]1N(C)C [ERYTHROMYCIN ETHYLSUCCINATE] : 0
CC1=C(/C=C/C(C)=C/C=C/C(C)=C/CO)C(C)(C)CCC1 : 0

Note: attention shifts to another entry.
Q: Please give the measured DBIL for this compound: `CN1C(=O)CN=C(c2ccccc2)c2cc(Cl)ccc21`
Result: 0.002

----------
- Species on record: Rattus norvegicus
- ASSAY NOTES: Open TG-GATES - Regimen: Single
- Type: toxicity, organism-based, Sprague-Dawley
- Set-up: regimen Single, gender Male, age 6 weeks
- TEST CONTEXT: in vivo, po, 10 mg/kg, 3 h, tissue Plasma, route gavage, dose level Low
PROPERTY LABEL: TP (g/dL)
Kindly answer with a numeric value in g/dL, unit omitted.

Below are worked cases with known answers.
CN(C)CCCN1c2ccccc2CCc2ccccc21 : 5.5
CN(C)CCN(Cc1cccs1)c1ccccn1 : 5.3
CN(C)CCCN1c2ccccc2CCc2ccc(Cl)cc21 : 5.2
CC(C)OC(=O)C(C)(C)Oc1ccc(C(=O)c2ccc(Cl)cc2)cc1 [FENOFIBRATE] : 5.2

Okay, next one:
Q: # query: TP of entry `CC1=C(/C=C/C(C)=C/C=C/C(C)=C/CO)C(C)(C)CCC1`
Result: 5.6

----------
- Species: Rattus norvegicus
- ASSAY NOTES: Open TG-GATES - Regimen: Daily Repeat
- Type: toxicity, organism-based, Sprague-Dawley
- Parameters: regimen Daily Repeat, gender Male, age 6 weeks
- TEST CONTEXT: in vivo, po, 0 mg/kg, […], tissue Plasma, route gavage, dose level Control, time 28 day
PROPERTY LABEL: GLC (mg/dL)
Could you give me the number in mg/dL? Just the number is fine.

Examples with their reported GLC follow.
CCOC(=O)CCC(=O)O[C@H]1[C@H](O[C@@H]2[C@@H](C)[C@H](O[C@H]3C[C@@](C)(OC)[C@@H](O)[C@H](C)O3)[C@@H](C)C(=O)O[C@H](CC)[C@@](C)(O)[C@H](O)[C@@H](C)C(=O)[C@H](C)C[C@@]2(C)O)O[C@H](C)C[C@@H]1N(C)C [ERYTHROMYCIN ETHYLSUCCINATE] : 189.4
CCCNC(=O)NS(=O)(=O)c1ccc(Cl)cc1 [CHLORPROPAMIDE] : 188.8
CN(C)CCN(Cc1cccs1)c1ccccn1 : 183.6
COC1=CC(=O)C[C@@H](C)[C@]12Oc1c(Cl)c(OC)cc(OC)c1C2=O : 240.2
NC(N)=Nc1nc(CSCCC(N)=NS(N)(=O)=O)cs1 : 217.4
CN(C)CCCN1c2ccccc2CCc2ccccc21 : 188.8
CCOc1ccc(NC(=O)CC(C)O)cc1 (stereo not drawn) : 188.6

Here is the next item to consider.
Q: Which GLC value belongs to `NNC(=O)c1ccncc1` ?
Result: 208.8

----------
- Organism: Rattus norvegicus
- ASSAY NOTES: Open TG-GATES - Regimen: Single
- Format: toxicity, organism-based, Sprague-Dawley
- Parameters: regimen Single, gender Male, age 6 weeks
- TEST CONTEXT: in vivo, po, 100 mg/kg, 24 h, tissue Plasma, route gavage, dose level Low
Recorded RALB for the following compounds
Answer in g/dL, number only, no unit symbol.

CCOC(=O)CCC(=O)O[C@H]1[C@H](O[C@@H]2[C@@H](C)[C@H](O[C@H]3C[C@@](C)(OC)[C@@H](O)[C@H](C)O3)[C@@H](C)C(=O)O[C@H](CC)[C@@](C)(O)[C@H](O)[C@@H](C)C(=O)[C@H](C)C[C@@]2(C)O)O[C@H](C)C[C@@H]1N(C)C [ERYTHROMYCIN ETHYLSUCCINATE] : 3.1
NC(N)=Nc1nc(CSCCC(N)=NS(N)(=O)=O)cs1 [FAMOTIDINE] : 3.3
COc1ccc2[nH]c([S+]([O-])Cc3ncc(C)c(OC)c3C)nc2c1 (centres undefined) [OMEPRAZOLE] : 3.2

Below: the item to evaluate.
Q: Entry under review: COC1=CC(=O)C[C@@H](C)[C@]12Oc1c(Cl)c(OC)cc(OC)c1C2=O [GRISEOFULVIN] . Reported RALB?
Result: 3.3

----------
- Species: Rattus norvegicus
- ASSAY NOTES: Open TG-GATES - Regimen: Single
- Assay type: toxicity, organism-based, Sprague-Dawley
- Design: regimen Single, gender Male, age 6 weeks
- TEST CONTEXT: in vivo, po, 100 mg/kg, 24 h, tissue Plasma, route gavage, dose level Low
PROPERTY LABEL: IP (mg/dL)
API: value field is a number in mg/dL; no unit string.

Field: example entries. Status: answers known.
CCOC(=O)CCC(=O)O[C@H]1[C@H](O[C@@H]2[C@@H](C)[C@H](O[C@H]3C[C@@](C)(OC)[C@@H](O)[C@H](C)O3)[C@@H](C)C(=O)O[C@H](CC)[C@@](C)(O)[C@H](O)[C@@H](C)C(=O)[C@H](C)C[C@@]2(C)O)O[C@H](C)C[C@@H]1N(C)C [ERYTHROMYCIN ETHYLSUCCINATE] : 7.7
COc1ccc2[nH]c([S+]([O-])Cc3ncc(C)c(OC)c3C)nc2c1 (centres undefined) : 9.3

Q: Value lookup for IP; key = `NC(N)=Nc1nc(CSCCC(N)=NS(N)(=O)=O)cs1`
Result: 7.7

Q: Same for `COC1=CC(=O)C[C@@H](C)[C@]12Oc1c(Cl)c(OC)cc(OC)c1C2=O`
Result: 8.5
